These data points were gathered from PubChem BioAssay (NCI).

# Tested on: U251 CNS
# METHOD SUMMARY: NCI-60 one-dose screen, 48 h (100 = growth as untreated, 0 = no growth, -100 = all killed)
# STUDY CONDITIONS: 10 µM unless noted
The panel holds about 83,000 compounds, 20% with a hit somewhere; the sample as a whole holds those more often.
Lab note: cut-off is 50%. Strictly less in growth is Met. Exactly 50% or more is Not met.

COMPOUND STRUCTURE	CLASS LABEL
CC(=O)N[C@@H](CNC(=O)c1cc(NC(=O)c2cc(NC(=O)c3cc(NC(=O)c4nccn4C)cn3C)cn2C)cn1C)CC(=O)Nc1cn(C)c(C(=O)Nc2cc(C(=O)Nc3cc(C(=O)Nc4cc(C(=O)NCCCN(C)CCCNC(=O)c5cccc(C(=O)O)c5)n(C)c4)n(C)c3)n(C)c2)n1	Not met
Cc1cc(SCc2ccc(Cl)cc2Cl)nc(SCc2ccc(Cl)cc2Cl)n1	Not met
COc1ccc(/C=C/C(=O)c2ccc(NC(=O)CSc3nnc(-c4cc(OC)c(OC)c(OC)c4)o3)cc2)cc1	Met
O=C(/C=C/c1ccccc1)Oc1ccc(/C=C/c2cc(OC(=O)/C=C/c3ccccc3)cc(OC(=O)/C=C/c3ccccc3)c2)cc1	Not met
CCc1c(C)c2cc3c(c(C)c2oc1=O)OCC(=O)N3	Not met
CC(=O)O[C@@H]1[C@@H](OC(C)=O)[C@H](OC(C)=O)CO[C@H]1Nc1cccc2ccccc12	Not met
CC/C(=C(\CC)c1ccc(OCCN(CC)CC)cc1)c1ccc(OCCN(CC)CC)cc1	Met
COc1ccc(/C=C/C(=O)/C=C(/C=C/c2ccc(OC)c(OC)c2OC)OB(F)F)c(OC)c1OC	Met
COc1ccc(-c2nnc(SCC(=O)Nc3ccc(C(=O)/C=C/c4ccc(Cl)cc4)cc3)o2)cc1OC	Not met
